Give measured % inhibition of gametocyte viability for each item. Keep answers brief.
system: Plasmodium falciparum NF54 stage IV/V gametocytes; test: % inhibition of gametocyte viability (ATP bioluminescence); higher = more inhibition; settings: 1 µM; 24 h

These solved cases illustrate the format of a correct answer.
COc1cc(C2C3=C(CC(C)(C)CC3=O)Nc3ccccc3N2C(C)=O)ccc1OCc1ccccc1 (centres undefined) | 3.07%
COc1ccc(NS(=O)(=O)c2ccc(Cl)s2)cn1 | < 0%
Cc1ncc([N+](=O)[O-])n1CC(O)CN1CCOCC1 (centres undefined) | < 0%
Nc1nc(O)c2ncn(COC(CO)CO)c2n1 | < 0%
CC(C)n1cnc2c(NCc3ccccc3)nc(NCc3ccccc3)nc21 | < 0%

Below is a list of compounds. For each, state its recorded % inhibition of gametocyte viability.
1. CCCCCCCCCN1C[C@@H](O)[C@H](O)[C@@H](O)[C@@H]1CO
2. COc1cc(NC(=O)CN2C(=O)NC(c3ccccc3)(c3ccccc3)C2=O)cc(OC)c1
3. Nc1nc(-c2ccccc2)nc2[nH]nc(Nc3ccc(C(F)(F)F)cc3)c12
4. O=C(O)[C@H]1C2CCC(CC2)[C@@H]1Nc1nc(-c2c[nH]c3ncc(F)cc23)ncc1F
5. O=C(/C=C/n1cnc(-c2cc(C(F)(F)F)cc(C(F)(F)F)c2)n1)NNc1cnccn1
6. O=C(Nc1ccccc1)N(Cc1cc(Br)ccc1O)c1ccc(F)cc1

["< 0%", "< 0%", "< 0%", "0.663%", "0.272%", "< 0%"]

Below is a list of compounds. For each, state its recorded % inhibition of gametocyte viability.
1. C[C@H]1CC[C@@]2(O)C(C)(C)[C@@H]3CC[C@@]2(C)[C@H]1C3
2. OC1O[C@H](CSc2ccc(F)cc2)[C@@H](O)[C@H]1O (some centres undefined)
3. COc1c(F)c(F)cc2c(=O)c(C(=O)O)cn(C3CC3)c12
4. CNC(=O)C1O[C@@H](n2cnc3c(NCc4cccc(I)c4)nc(Cl)nc32)[C@H](O)[C@@H]1O (some centres undefined)

< 0%
< 0%
< 0%
< 0%

Below is a list of compounds. For each, state its recorded % inhibition of gametocyte viability.
1. FC(F)(F)Oc1ccc(Nc2ccc3cccc(Cl)c3n2)cc1
2. OB1OCc2cc(Cl)ccc21
3. Nc1ccc(-c2nc3cc(C(F)(F)F)ccc3n2C23CC4CC(CC(C4)C2)C3)cc1
4. O=C(Nc1nnc(-c2ccccc2)o1)c1ccc(F)cc1
5. NNC(=O)c1ccncc1
6. COc1ccc2cc3[n+](cc2c1OCCN(CCn1cncn1)Cc1ccc(F)cc1F)CCc1cc2c(cc1-3)OCO2

1. 4.02%
2. < 0%
3. < 0%
4. < 0%
5. < 0%
6. < 0%

Below is a list of compounds. For each, state its recorded % inhibition of gametocyte viability.
1. CC1CCc2c(N3CCC(O)CC3)c(F)cc3c(=O)c(C(=O)O)cn1c23 (centres undefined)
2. COC1CC2CCC(C)C(O)(O2)C(=O)C(=O)N2CCCCC2C(=O)OC(C(C)CC2CCC(OCCO)C(OC)C2)CC(=O)C(C)/C=C(\C)C(O)C(OC)C(=O)C(C)CC(C)/C=C/C=C/C=C/1C (centres undefined)
3. CC(=O)N[C@H](C)C(=O)N[C@H](Cc1ccccc1)C(=O)O
4. N=c1n(CCN2CCCCC2)c2ccccc2n1CC(O)COc1ccc(Cl)cc1Cl (centres undefined)

1: < 0%; 2: 2.16%; 3: < 0%; 4: 85.7%
